Listing of entries alongside the reported Saluretic potency.
Tested on: Rattus norvegicus
Experiment: Saluretic property was estimated by the excretion of Na+ in rat administered orally; microequiv of Na+ at 5 mg/kg […]
Format: ADME, organism-based
Set-up: dose 5 mg/kg
Settings: in vivo
reported-metric: Saluretic potency

* CC(C)(C)c1cc(I)c(O)c(CNS(=O)(=O)O)c1 | 0.3 u equiv
* Cl.NCc1c(O)c(Cl)cc(Cl)c1Cl | 0.5 u equiv
* CCCCNCc1cc(C(C)(C)C)cc(I)c1O.Cl | 1.4 u equiv
* CCNS(=O)(=O)Oc1c(I)cc(C(C)(C)C)cc1CN.Cl | 0.5 u equiv
* O=C(CCl)NCc1c(O)c(Cl)cc(Cl)c1Cl | 0.3 u equiv
* CN(C)Cc1cc(C(C)(C)C)cc(I)c1O | 1.4 u equiv

----------
Tested on: Rattus norvegicus
Experiment: Saluretic property (excretion of Na+ in rat after PO dosing)
Format: ADME, organism-based
Conditions: in vivo
Saluretic potency values, listed per item
reported-metric: Saluretic potency

- CC(C)(C)c1cc(I)c(O)c(CNC(N)=O)c1: < 0.2 u equiv
- CN(C)S(=O)(=O)Oc1c(I)cc(C(C)(C)C)cc1CN.Cl: 1.8 u equiv
- CCN(CC)C(=O)COc1c(I)cc(C(C)(C)C)cc1CN.Cl: < 0.2 u equiv
- Oc1c(Cl)cc(Cl)c(Cl)c1CN1CCOCC1: < 0.2 u equiv
- CC(C)(C)c1cc(I)c(O)c(CN=C(N)N)c1: < 0.2 u equiv
- CC(C)(C)c1cc(Cl)c(O)c(CN)c1.Cl: 3.9 u equiv
- CC(C)(C)c1cc(I)c(OCC(N)=O)c(CN)c1.Cl: < 0.2 u equiv
- CC(C)(C)c1cc(Cl)c2c(c1)CNC(=O)CO2: < 0.2 u equiv
- CN(Cc1c(O)c(Cl)cc(Cl)c1Cl)CC1CCCO1 (centres undefined): < 0.2 u equiv
- CC(C)(C)c1cc(Cl)c2c(c1)CNCCO2.Cl: < 0.2 u equiv
- CC(C)(C)c1cc(I)c(O)c(CN)c1.Cl: 3.9 u equiv
- CNCc1cc(C(C)(C)C)cc(I)c1O: 3.6 u equiv
- O=C(NCc1c(O)c(Cl)cc(Cl)c1Cl)C(F)(F)F: 1.8 u equiv
- CC(C)(C)c1cc(I)c(O)c(CNC2=NCCC2)c1.Cl: < 0.2 u equiv

Origin of the recorded values: ChEMBL document CHEMBL1122081
